# MEASUREMENT TARGET: CETP (Homo sapiens)
# Sequence (P11597 18-493): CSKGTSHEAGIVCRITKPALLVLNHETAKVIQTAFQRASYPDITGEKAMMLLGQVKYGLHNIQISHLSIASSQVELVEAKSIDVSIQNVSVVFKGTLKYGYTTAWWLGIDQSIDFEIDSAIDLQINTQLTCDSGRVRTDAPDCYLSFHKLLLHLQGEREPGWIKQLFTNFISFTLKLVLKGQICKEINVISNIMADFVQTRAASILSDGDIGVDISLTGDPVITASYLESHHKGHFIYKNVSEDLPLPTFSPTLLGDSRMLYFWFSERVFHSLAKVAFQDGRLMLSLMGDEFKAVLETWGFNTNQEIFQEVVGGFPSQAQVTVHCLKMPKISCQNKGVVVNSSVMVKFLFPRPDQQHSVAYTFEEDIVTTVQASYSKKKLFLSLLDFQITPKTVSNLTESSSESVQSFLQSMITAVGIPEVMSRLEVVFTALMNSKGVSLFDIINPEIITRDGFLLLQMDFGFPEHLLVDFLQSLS
# METHOD SUMMARY: Assay of CETP Inhibition using Purified Components (Reconstituted Buffer Assay)
# Assay type: biochemical
# Parameters: made in house; host or cells: CHO cells (serum-free conditioned medium)
# APPLIED CONDITIONS: Inhibition of CETP activity in reconstituted buffer assay; transfer of [3H]CE from HDL to LDL; read-out: IC50
MEASURE: pIC50
By convention, pIC50 is the negative base-10 log of a molar concentration.

Input: Could you share which pIC50 value was measured for CC(C)(C)[Si](C)(C)OC(CN(Cc1cccc(OC(F)(F)C(F)F)c1)c1cccc(Br)c1)C(F)(F)F (centres unmarked) [Example 220] ?
Output: 4.74

Input: Could you share which pIC50 value was measured for OC(CN(Cc1cccc(Oc2ccccc2)c1)c1ccccc1-c1ccccc1)C(F)(F)F (centres unmarked) [Example 85] ?
Output: 4.10

Input: Could you share which pIC50 value was measured for Cc1ccc(CN(CC(O)C(F)(F)F)c2ccc(F)c(C(F)(F)F)c2)cc1 (centres unmarked) [Example 53] ?
Output: 4.82

Input: Could you share which pIC50 value was measured for COc1ccc(-c2cccc(N(Cc3cccc(OC(F)(F)C(F)F)c3)CC(O)C(F)(F)F)c2)cc1 (centres unmarked) [Example 558] ?
Output: 6.16

meta.source: patent US6723753B2
